# System: RAW264.7
# testDetails: Inhibition of LPS-induced nitric oxide production in mouse RAW264.7 cells
# Type: functional, cell-based
observedProperty: IC50 (µM)
Give bare numbers, in µM.

Provide reported IC50 for each item, in the same order as listed.
1. O=C(/C=C/c1ccccc1O)c1ccsc1
2. COc1ccc(OC)c(C(=O)/C=C/c2ccc(N(C)C)cc2)c1
3. COc1cc(C(=O)/C=C/c2cc(OC)c(OC)c(OC)c2)ccc1O
4. CC1(C)C=Cc2c(ccc(C(=O)/C=C/c3ccc(O)cc3)c2O)O1

// result
1. 5.75
2. 0.7
3. 4.19
4. 10.2

----------
# Test system: RAW264.7
# testDetails: Cytotoxicity against mouse RAW264.7 cells assessed as reduction in cell viability measured after 24 hrs by MTT assay
# Format: cell-based
# conditionParameters: RAW264.7, 24 h
observedProperty: pIC50
Give bare numbers, as −log10 of the molar value.

Record excerpt, results attached:
compound=COc1cccc(/C=C/C(=O)c2ccc(OC)cc2O)c1 valueobserved=4.53
compound=COc1cccc(/C=C/C(=O)c2c(OC)cc(OC)cc2OC(C)=O)c1 valueobserved=4.51
compound="COc1cc(O)c(C(=O)/C=C/c2ccccc2)c(OC)c1 [FLAVOKAWAIN B]" valueobserved=4.58
compound=CCOc1cc(OC)cc(OC)c1C(=O)/C=C/c1cccc(OC)c1 valueobserved=4.47

Now for the compound whose pIC50 we want.
// query Would you mind telling me what pIC50 value was observed for `COc1cccc(/C=C/C(=O)c2c(O)cc(OC)cc2OC)c1` ?
// result 4.47

----------
# Tested on: RAW264.7
# testDetails: Cytotoxicity against mouse RAW264.7 cells assessed as reduction in cell viability measured after 24 hrs by MTT assay
# Format: cell-based
# conditionParameters: RAW264.7, 24 h
pIC50: −log10 of the molar value.
observedProperty: pIC50

Examples from the recorded data:
smilesstructure=COc1cc(O)c(C(=O)/C=C/c2ccc(OCCCN3CCCC3)c(OC)c2)c(OC)c1 valueobserved="< 4.40"
smilesstructure=COc1cc(O)c(C(=O)/C=C/c2ccc(C)cc2)c(OC)c1 valueobserved="< 4.40"
smilesstructure=O=c1cc(-c2ccc(O)c(O)c2)oc2cc(O)cc(O)c12 valueobserved="< 4.40"

// query Which measured pIC50 belongs to `COc1cc(O)c(C(=O)/C=C/c2ccc(OCCCN3CCOCC3)c(OC)c2)c(OC)c1` , tested on RAW264.7?
// result < 4.10
